Target: GBA (glucosylceramidase, GCase), L444P GBA mutation (Homo sapiens, UniProt P04062, L483P)
Construct: Human fibroblast cell line GM10915 harboring the L444P GBA mutation was obtained from Coriell Biorepositories; host or cells: GM10915 human fibroblasts
Sequence (P04062 40-536 L483P): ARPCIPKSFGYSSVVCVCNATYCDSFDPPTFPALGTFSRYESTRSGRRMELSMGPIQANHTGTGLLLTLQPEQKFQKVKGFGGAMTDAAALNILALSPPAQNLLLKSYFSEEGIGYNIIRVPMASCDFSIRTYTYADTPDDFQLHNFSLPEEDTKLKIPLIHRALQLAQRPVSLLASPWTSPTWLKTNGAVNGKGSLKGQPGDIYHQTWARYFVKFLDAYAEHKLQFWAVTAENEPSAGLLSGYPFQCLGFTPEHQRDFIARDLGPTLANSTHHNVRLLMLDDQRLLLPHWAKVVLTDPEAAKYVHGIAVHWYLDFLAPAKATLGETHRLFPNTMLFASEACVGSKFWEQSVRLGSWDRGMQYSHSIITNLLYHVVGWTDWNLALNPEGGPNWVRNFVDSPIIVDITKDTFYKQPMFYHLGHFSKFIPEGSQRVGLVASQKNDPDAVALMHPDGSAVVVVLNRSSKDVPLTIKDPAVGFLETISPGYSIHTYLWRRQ
Test: GCase activity assay (4-MUG) in GM10915 fibroblasts, normalised to crystal violet staining
Type: cell-based
Conditions: maximum Percent GCase activity in the dose range tested, relative to basal activity of untreated cells; GM10915 (L444P GBA), five days exposure
measured_endpoint: Emax (%)
State the answer as a number, implicitly in %.

Examples with answers:
Query :: Given the entry c1nc2cc(CN3CCCCC3)oc2cc1C1CCNCC1 , report its measured Emax.
Result :: 204

Query :: Given the entry COc1ncc(C2CCNC2)cc1CN1CCCCC1 (stereo not shown) , report its measured Emax.
Result :: 203

Query :: Given the entry c1cc2c(CN3CCCCC3)c[nH]c2nc1C1CCCNC1 (stereo not shown) , report its measured Emax.
Result :: 203

New cases:
Query :: Given the entry Cc1cc(CN2CCCCC2)nc(C2CCCNC2)c1 (stereo not shown) , report its measured Emax.
Result :: 200
